Test system: U251 human glioblastoma cell line
Assay: in vitro FM-HCR assay of MGMT activity (mPlum O^6MeG reporter plasmid)
Assay type: cell-based
Conditions: 0.1% DMSO; U251 cells; flow cytometry 24 h after transfection; damaged/undamaged reporter; inversely related to MGMT activity
Listing: Reporter expression (%) mean, DMSO of selected molecules
Field note: include the unit after the figure.

N137P: MGMT polypeptide with mutation N137P (protein) MDKDCEMKRTTLDSPLGKLELSGCEQGLHEIKLLGKGTSAADAVEVPAPAAVLGGPEPLMQCTAWLNAYFHQPEAIEEFPVPALHHPVFQQESFTRQVLWKLLKVVKFGEVISYQQLAALAGNPKAARAVGGAMRGPPVPILIPCHRVVCSSGAVGNYSGGLAVKEWLLAHEGHRLGKPGLGGSSGLAGAWLKGAGATSGSPPAGRN
94.0%
L33K: MGMT polypeptide with mutation L33K (protein) MDKDCEMKRTTLDSPLGKLELSGCEQGLHEIKKLGKGTSAADAVEVPAPAAVLGGPEPLMQCTAWLNAYFHQPEAIEEFPVPALHHPVFQQESFTRQVLWKLLKVVKFGEVISYQQLAALAGNPKAARAVGGAMRGNPVPILIPCHRVVCSSGAVGNYSGGLAVKEWLLAHEGHRLGKPGLGGSSGLAGAWLKGAGATSGSPPAGRN
16.0%

Turning to the following molecule.
## Task Recorded Reporter expression (%) mean, DMSO for G160P: MGMT polypeptide with mutation G160P (protein) MDKDCEMKRTTLDSPLGKLELSGCEQGLHEIKLLGKGTSAADAVEVPAPAAVLGGPEPLMQCTAWLNAYFHQPEAIEEFPVPALHHPVFQQESFTRQVLWKLLKVVKFGEVISYQQLAALAGNPKAARAVGGAMRGNPVPILIPCHRVVCSSGAVGNYSPGLAVKEWLLAHEGHRLGKPGLGGSSGLAGAWLKGAGATSGSPPAGRN , please?
## Result 22.8%
